# test description: Metabolic stability in rat liver microsomes assessed as parent compound remaining at 1 uM after 60 mins in presence of NADP by LC-MS/MS analysis
# Assay type: ADME, microsome
# reported conditions: read-out: Stability
recorded metric: remaining at 1 h, 1 µM (%)
One number for each entry, in %.

The following molecules have reported results that may help.
molecule	measurement unit	remaining at 1 h, 1 µM
CC[C@H]1OC(=O)[C@H](C)[C@@H](OC(=O)CCNCCNc2cc3c(=O)c(C(=O)O)cn(C4CC4)c3cc2Cl)[C@H](C)[C@@H](O[C@@H]2O[C@H](C)C[C@H](N(C)C)[C@H]2O)[C@](C)(OC/C=C/c2cnc3ccccc3c2)C[C@@H](C)NC(=O)[C@H](C)[C@@H](O)[C@]1(C)O	%	100
CC[C@H]1OC(=O)[C@H](C)[C@@H](O[C@H]2C[C@@](C)(OC)[C@@H](O)[C@H](C)O2)[C@H](C)[C@@H](O[C@@H]2O[C@H](C)C[C@H](N(C)C)[C@H]2O)[C@](C)(OC)C[C@@H](C)C(=O)[C@H](C)[C@@H](O)[C@]1(C)O [CLARITHROMYCIN]	%	92.5

Attention now shifts to the item below.
// recorded remaining at 1 h, 1 µM for CCOc1ccc2ccc(=O)oc2c1 [ETHOXYCOUMARIN] : 57
